target: coumarin-labelled LMP-1 transmembrane domain 5 (TMD5) peptide (Epstein-Barr virus); assay: FRET or BRET
No end group written: not given here.
OBSERVABLE: pKd
pKd here is simply -log10 of the concentration when that concentration is written in mol/L.

What does the data say about its pKd? Entry: WWKLWYFLVWFLDLIILILLLWW (designed binder, also: FITC label, position not given here) [FITC-tagged anti-TMD5 peptide]
7.17
